Measurement Protocol: chemical genetic growth profiling, strain panel (AID 1159580);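 note: tested at 20 µM; growth read once vehicle control cultures reached saturation at 30 °C; 1 = growth at the plate median or of vehicle wells; lower values mean less growth of the strain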
Condition Summary: S. cerevisiae deletion strains, growth OD, locus YJL095W, strain BCK1, stronger effect = lower value
Hit rate of the full screen: of about 5,500 compounds, about 2,000 (36%) were called active. Another 18% or so got no clear call; they are omitted. This is one part of the list. Where a SMILES comes first, the peptide text is derived from it.
Rule: normalized growth below 1 gives True, anything at or above gives False.

• COc1ccc(OC)c(-c2ccn[nH]2)c1OCc1ccccc1 = True
• NCCCCC(N)C(=O)NC(Cc1ccc(O)cc1)C(=O)NC(CCCCN)C(=O)O (stereo not drawn) (H-Lys-Tyr-Lys-OH; configuration not given here) = False
• S=C(Nc1cc(Cl)c(Cl)cc1Cl)Nc1ccccc1Br = True

###

List of normalized growth values.
Measurement Protocol: chemical genetic growth profiling, strain panel (AID 1159580);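 note: tested at 20 µM; growth read once vehicle control cultures reached saturation at 30 °C; 1 = growth at the plate median or of vehicle wells; lower values mean less growth of the strain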
Condition Summary: S. cerevisiae deletion strains, growth OD, locus YPR119W, strain clb2, stronger effect = lower value
Hit rate of the full screen: of about 5,500 compounds, about 2,000 (36%) were called active. Not shown: some 18% with an inconclusive outcome. The list shows a part of the results.
Quantity Measured: normalized growth

* CC1CC2C3CC(F)C4=CC(=O)C=CC4(C)C3(F)C(O)CC2(C)C1C(=O)COC(=O)C(C)(C)C (configuration not stated) | 1.03
* CC1CCC2(OC1)OC1CC3C4CCC5C[C@@H](O)CCC5(C)C4=CCC3(C)C1[C@@H]2C (some centres not stated) | 0.985
* O=c1[nH]cnc2[nH]ncc12 | 1.02
* COc1cc(OC)c(OC)cc1C=O | 0.974
* CN(C(=O)CN(CCO)CC(=O)N(C)C(C)(C)Cc1ccccc1)C(C)(C)Cc1ccccc1 | 0.974
* C[C@@H]1CC2C3C[C@H](F)C4=CC(=O)C=C[C@]4(C)[C@@]3(F)[C@@H](O)C[C@]2(C)[C@@]1(O)C(=O)COC(=O)C(C)(C)C (some centres not stated) | 1.01
* COc1c2ccoc2nc2c(OC)c(OCC(O)C(C)(C)O)ccc12 (configuration not stated) | 0.998
* NC(N)=O | 0.992
* COc1c2ccccc2nc2occc12 | 1
* CCN(CCCc1ccccc1)CCCc1ccccc1 | 1.03
* NNCCc1ccccc1 | 0.981
* COc1ccc(C(=O)CC(=O)c2ccc(C(C)(C)C)cc2)cc1 | 0.998

###

Measurement Protocol: chemical genetic growth profiling, strain panel (AID 1159580);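 note: tested at 20 µM; growth read once vehicle control cultures reached saturation at 30 °C; 1 = growth at the plate median or of vehicle wells; lower values mean less growth of the strain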
Condition Summary: S. cerevisiae deletion strains, growth OD, locus YOR329C, strain SCD5
Screen size: about 5,500 compounds; about 2,000 (36%) were called active. Not shown: some 18% with an inconclusive outcome. Cut-off read from the data, not from the text of the source: active = normalized growth mostly below about 0.91 (no sharp cut-off); inconclusive = no clear call, values can overlap the other calls; inactive = mostly above about 0.92. Some of the results follow.
Possible outcomes: 1 (yes) for active, 0 (no) for inactive

- O=[N+]([O-])c1ccc(-c2csc(Nc3ccncc3)n2)cc1: 0 (no)
- CNC(=O)n1nc(C)c(Cc2csc3ccc(Cl)cc23)c1C: 0 (no)
- CS(=O)(=O)/C(C#N)=C/c1ccccc1OCc1c(Cl)cccc1Cl: 0 (no)
- N#Cc1ccc(NC(=O)Nc2cccc3ccccc23)cc1: 0 (no)
- Cc1onc(-c2ccccc2)c1C(=O)Sc1ccc(C(F)(F)F)cn1: 0 (no)
- O=C(CCn1c(=O)oc2ccccc21)Sc1ccc(C(F)(F)F)cc1: 0 (no)
- COc1ccc(C(=O)NCc2csc3ccc(Cl)cc23)cc1OC: 0 (no)
- CC(C)(C)C(=O)/C(C#N)=C/c1c(Cl)cccc1Cl: 1 (yes)
- O=C(CCn1c(=O)oc2ccccc21)Sc1ccc(Cl)cc1Cl: 0 (no)
- COc1cc(CC/C(C)=N/O)ccc1OCc1ccc(Cl)cc1Cl: 0 (no)
- CC1(C)c2ccccc2N(CCC(N)=O)C12C=Cc1c(ccc3ccccc13)O2 (centres undefined): 0 (no)
- COc1cc(CC/C(C)=N\O)ccc1OCc1ccc(Cl)c(Cl)c1: 0 (no)
- COc1ccc(OC)c(-c2ccn[nH]2)c1OCc1ccccc1: 0 (no)
- O=C(Nc1ccc(F)c(Cl)c1)c1ccccc1O: 0 (no)
